# EXPERIMENTAL_PROTOCOL: mRNA capping efficiency after 2 hrs by gel shift assay relative to control
Consider the following compounds; for each one, report its Activity.
Numbers only, in %.

{"INPUT_SMILES": "C[n+]1cn([C@@H]2O[C@H](COP(=O)(O)OP(=O)([O-])OP(=O)([O-])OC[C@@H]3O[C@H](n4c[n+](C)c5c(=O)[nH]c(N)nc54)[C@@H](O)[C@H]3O)[C@@H](O)[C@H]2O)c2nc(N)[nH]c(=O)c21", "Activity [%]": 56}
{"INPUT_SMILES": "CO[C@@H]1[C@H](O)[C@@H](n2c[n+](C)c3c(=O)[nH]c(N)nc32)O[C@H]1COP(=O)([O-])OP(=O)(O)OP(=O)(O)OC[C@H]1O[C@@H](n2cnc3c(=O)[nH]c(N)nc32)[C@H](O)[C@@H]1O", "Activity [%]": 52}
{"INPUT_SMILES": "CO[C@@H]1[C@H](O)[C@@H](n2c[n+](C)c3c(=O)[nH]c(N)nc32)O[C@H]1COP(=O)([O-])OP(=O)(O)OP(=O)([O-])OC[C@H]1O[C@@H](n2c[n+](C)c3c(=O)[nH]c(N)nc32)[C@H](O)[C@@H]1O", "Activity [%]": 51}

We now examine a further compound.
Which Activity is listed for C[n+]1cn([C@H]2O[C@@H](COP(=O)([O-])OP(=O)(O)OP(=O)(O)OC[C@H]3O[C@@H](n4cnc5c(=O)[nH]c(N)nc54)[C@H](O)[C@@H]3O)[C@H](O)[C@@H]2O)c2nc(N)[nH]c(=O)c21 ?
61

These entries and their values trace back to ChEMBL document CHEMBL1140841.
